All figures here come from patent US20260209348A1.

List of pKd values.
- TARGET_OR_SYSTEM: human ROR2 (human, UniProt Q01974 34-403, limits assumed)
- Sequence (Q01974 34-403 limits assumed): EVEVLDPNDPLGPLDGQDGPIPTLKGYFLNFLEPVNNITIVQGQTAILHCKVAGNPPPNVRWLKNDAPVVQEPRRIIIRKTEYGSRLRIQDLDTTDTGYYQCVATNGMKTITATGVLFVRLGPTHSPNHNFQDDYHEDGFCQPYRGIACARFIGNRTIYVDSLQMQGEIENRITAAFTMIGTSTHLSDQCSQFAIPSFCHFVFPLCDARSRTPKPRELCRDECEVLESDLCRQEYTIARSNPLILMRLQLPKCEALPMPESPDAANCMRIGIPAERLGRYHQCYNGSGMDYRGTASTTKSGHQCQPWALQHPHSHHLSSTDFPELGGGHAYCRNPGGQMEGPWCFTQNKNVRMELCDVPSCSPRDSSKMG
- PROTOCOL_NOTES: SPR
In textbook form, pKd equals minus log to base ten of the concentration in mol/L.

grafted humanized 6E6: VH3-11*03 (extended) + VK1-12*01 (extended) (antibody, V domains shown, expressed as IgG) VH: QVQLLESGGGLVKPGGSLRLSCAASGFTFSNYGMSWIRQAPGKGLEWVSTISSGGGYTHYVDSVKGRFTISRDNAKNSLYLQMNSLRAEDTAVYYCARHPRDFSYAMDYWGQGTTVTVSS VL: DIQMTQSPSSVSASVGDRVTITCKASQDVGHYVAWYQQKPGKAPKLLIYWASTRHTGVPSRFSGSGSGTDFTLTISSLQPEDFATYYCQQYNIYPWTFGQGTKVEIK
8.68
grafted humanized 6E6: VH3-21*01 (extended) + VK1-8*01 (IMGT) (antibody, V domains shown, expressed as IgG) VH: EVQLVESGGGLVKPGGSLRLSCAASGFTFSNYGMSWVRQAPGKGLEWVSTISSGGGYTHYVDSVKGRFTISRDNAKNSLYLQMNSLRAEDTAVYYCARHPRDFSYAMDYWGQGTTVTVSS VL: AIRMTQSPSSFSASTGDRVTITCRASQDVGHYLAWYQQKPGKAPKLLIYWASTLQSGVPSRFSGSGSGTDFTLTISCLQSEDFATYYCQQYNIYPWTFGQGTKVEIK
8.00
grafted humanized 6E6: VH3-11*03 (extended) + VK3-15*01 (IMGT) (antibody, V domains shown, expressed as IgG) VH: QVQLLESGGGLVKPGGSLRLSCAASGFTFSNYGMSWIRQAPGKGLEWVSTISSGGGYTHYVDSVKGRFTISRDNAKNSLYLQMNSLRAEDTAVYYCARHPRDFSYAMDYWGQGTTVTVSS VL: EIVMTQSPATLSVSPGERATLSCRASQDVGHYLAWYQQKPGQAPRLLIYWASTRATGIPARFSGSGSGTEFTLTISSLQSEDFAVYYCQQYNIYPWTFGQGTKVEIK
8.96

Qu. Answer with the recorded pKd for the binder listed here: grafted humanized 6E6: VH3-21*01 (extended) + VK1-12*01 (extended) (antibody, V domains shown, expressed as IgG) VH: EVQLVESGGGLVKPGGSLRLSCAASGFTFSNYGMSWVRQAPGKGLEWVSTISSGGGYTHYVDSVKGRFTISRDNAKNSLYLQMNSLRAEDTAVYYCARHPRDFSYAMDYWGQGTTVTVSS VL: DIQMTQSPSSVSASVGDRVTITCKASQDVGHYVAWYQQKPGKAPKLLIYWASTRHTGVPSRFSGSGSGTDFTLTISSLQPEDFATYYCQQYNIYPWTFGQGTKVEIK
Ans. 9.17

Qu. Answer with the recorded pKd for the binder listed here: grafted humanized 6E6: VH3-21*01 (extended) + VK3-15*01 (IMGT) (antibody, V domains shown, expressed as IgG) VH: EVQLVESGGGLVKPGGSLRLSCAASGFTFSNYGMSWVRQAPGKGLEWVSTISSGGGYTHYVDSVKGRFTISRDNAKNSLYLQMNSLRAEDTAVYYCARHPRDFSYAMDYWGQGTTVTVSS VL: EIVMTQSPATLSVSPGERATLSCRASQDVGHYLAWYQQKPGQAPRLLIYWASTRATGIPARFSGSGSGTEFTLTISSLQSEDFAVYYCQQYNIYPWTFGQGTKVEIK
Ans. 9.24
